experiment_notes: Antiradical efficiency (kinetic study via DPPH assay)
run_conditions: according to Sanchez-Moreno, from AE value
measured_quantity: Classification of antiradical efficiency

smiles: [Br][Pd@SP2]([c]1ccccc1)([PH](c1ccccc1)(c1ccccc1)c1ccccc1)[PH](c1ccccc1)(c1ccccc1)c1ccccc1
measured_quantity: Classification of antiradical efficiency
value_reported: Low

smiles: CC(=O)Oc1cc[c]([Pd@SP2]([I])([PH](c2ccccc2)(c2ccccc2)c2ccccc2)[PH](c2ccccc2)(c2ccccc2)c2ccccc2)cc1
measured_quantity: Classification of antiradical efficiency
value_reported: Low

smiles: CC(=O)Oc1cc[c]([Pd@SP2]([Cl])([PH](c2ccccc2)(c2ccccc2)c2ccccc2)[PH](c2ccccc2)(c2ccccc2)c2ccccc2)cc1
measured_quantity: Classification of antiradical efficiency
value_reported: Low
